These data points were gathered from patent US8148391B2.

- MEASURED ON: c-Met (cytoplasmic domain) (Homo sapiens, UniProt P08581)
- Construct: 10 ng/mL c-Met (cytoplasmic domain, Invitrogen Corporation #PV3143); purchased Invitrogen Corporation PV3143
- Sequence (P08581 956-1390 limits assumed): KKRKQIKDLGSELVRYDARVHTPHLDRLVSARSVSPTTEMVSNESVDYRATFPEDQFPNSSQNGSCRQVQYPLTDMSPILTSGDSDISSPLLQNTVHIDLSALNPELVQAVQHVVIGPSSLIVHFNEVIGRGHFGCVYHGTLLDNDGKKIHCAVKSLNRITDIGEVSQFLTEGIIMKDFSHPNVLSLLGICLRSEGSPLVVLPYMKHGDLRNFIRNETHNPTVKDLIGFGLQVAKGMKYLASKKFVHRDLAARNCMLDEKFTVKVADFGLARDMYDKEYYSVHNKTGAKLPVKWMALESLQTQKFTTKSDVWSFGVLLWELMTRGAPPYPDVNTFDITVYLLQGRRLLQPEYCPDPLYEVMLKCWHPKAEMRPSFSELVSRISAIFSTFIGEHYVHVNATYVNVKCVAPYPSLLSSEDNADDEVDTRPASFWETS
- TEST METHOD NOTES: c-Met Kinase Assay (same methods as for ALK, with modifications)
- Assay type: biochemical
- MEASUREMENT SETUP: 1 μM ATP (Km level), 10 ng/mL c-Met; read-out: cMet Activity (c-Met kinase inhibition, IC50 class)
- Protocol: Briefly, each 96-well plate was coated with 100 μL/well of 10 μg/mL substrate (phospholipase C-γ) in Tris-buffered saline (TBS). […] The reaction was initiated by adding enzyme (30 ng/ml ALK) and was allowed to proceed at 37° C. for 15 minutes. Detection of the phosphorylated product was performed by adding 100 μl/well of Eu-N1 labeled PT66 antibody (Perkin Elmer # AD0041). Data analysis was performed using ActivityBase (IDBS, Guilford, UK). […]
pIC50: −log10 of the molar value.
READOUT NAME: pIC50

Observe how each entry below is paired with its result.
COCCN1CCc2ccc(Nc3ncc(Cl)c(Oc4c(F)cccc4OC4CCOC4)n3)cc2CC1 (stereo not drawn); 5.00 to 6.00
CCOC(=O)N1CCCOc2cc(Nc3ncc(Cl)c(Nc4ccccc4C(=O)NC)n3)ccc21; > 7.00
CNC(=O)c1cc(N(C)C)ccc1Nc1nc(Nc2cc3c(cc2OC)CCN(CC(=O)N(C)C)CC3)ncc1Cl; < 5.00

I have this compound here, CCN1C(=O)[C@@H](N)CCc2c1ccc(Nc1ncc(Cl)c(N[C@H]3[C@@H](C(N)=O)[C@@H]4C=C[C@H]3C4)n1)c2OC (single isomer, unassigned) , and I need its recorded pIC50.
< 5.00

I have this compound here, COc1cc2c(cc1Nc1ncc(Cl)c(Nc3ccc(N(C)C)cc3OC)n1)CCN(CC(=O)N(C)C)CC2 , and I need its recorded pIC50.
< 5.00

I have this compound here, CNC(=O)c1cc(F)cc(F)c1Nc1nc(Nc2ccc3c(c2)CCN(CCOC)CC3)ncc1Cl , and I need its recorded pIC50.
6.00 to 7.00

----------
- MEASURED ON: c-Met (cytoplasmic domain) (Homo sapiens, UniProt P08581)
- Construct: 10 ng/mL c-Met (cytoplasmic domain, Invitrogen Corporation #PV3143); purchased Invitrogen Corporation PV3143
- TEST METHOD NOTES: c-Met Kinase Assay (same methods as for ALK, with modifications)
- Format: biochemical
- MEASUREMENT SETUP: 1 μM ATP (Km level); read-out: cMet Activity (c-Met Kinase Inhibition, IC50)
Reported IC50 is given for each of the following compounds.

Observe how each entry below is paired with its result.
COCC(COC)N1CCc2cc(Nc3ncc(Cl)c(Nc4ccccc4S(=O)(=O)N(C)C)n3)c(OC)cc2CC1; > 10 µM
COc1cc2c(cc1Nc1ncc(Cl)c(N[C@H]3[C@@H](C(N)=O)[C@@H]4C=C[C@H]3C4)n1)CCN(CC1CC1)CC2; > 10 µM

Here is another compound to look at.
I have this compound here, COc1cc2c(cc1Nc1ncc(Cl)c(Nc3ccc(N4CCOCC4)c(OC)c3)n1)CCN(CC(=O)N(C)C)CC2 , and I need its recorded IC50.
> 10 µM
